Value source: paper PMC12392461

# Tested system: Aryl hydrocarbon receptor (Rattus norvegicus, UniProt P41738)
# Measurement setup: Bioassay AhR; dosing range all; linear model fit
# Text: All bioassay media components and the ERα-UAS-bla GripTite and PPARγ-UAS-bla cells were obtained from Thermo Fisher Scientific (Waltham, MA, USA). AREc32 reporter gene cells based on MCF7 were provided by C. Roland Wolf (Cancer Research UK); AhR CALUX cells (H4L7.5c2 derived from H4IIe) were provided by Michael Denison (UC Davis, USA); and SH-SY5Y cells were purchased from Sigma-Aldrich. […]
Attribute measured: EC10, linear

Some compounds with recorded EC10, linear:
>>> reading("Cc1ccc(S(=O)(=O)NC(=O)Nc2cccc(OS(=O)(=O)c3ccc(C)cc3)c2)cc1")
"2.29E-05"
>>> reading("CC(C)(c1cc(Cl)c(O)c(Cl)c1)c1cc(Cl)c(O)c(Cl)c1")
"1.69E-04"
>>> reading("CC1(C)C(O)C(C)(C)C1O (racemic)")
"no effect"
>>> reading("O=S(=O)(c1ccc(O)cc1)c1ccc(O)cc1")
"no effect"
>>> reading("O=S(=O)(c1ccc(O)cc1)c1ccc(OCc2ccccc2)cc1 [BPS-MPE, 4-[4-(benzyloxy)benzenesulfonyl]phenol]")
"no effect"

Lab note: next compound to report on.
Request: Endpoint output: EC10, linear of Cc1ccc(S(=O)(=O)NC(=O)Nc2ccc(Cc3ccc(NC(=O)NS(=O)(=O)c4ccc(C)cc4)cc3)cc2)cc1 . Value?
Result: no effect

----------
# Tested on: ERα-UAS-bla GripTite cells
# Measurement setup: Table S10; TKcytotoxicity-Ratio
Attribute measured: TKcytotoxicity
The answer should be written as a number, with no unit following it.

Request: Endpoint output: TKcytotoxicity of CC(C)(c1cc(Br)c(O)c(Br)c1)c1cc(Br)c(O)c(Br)c1 [TBBPA, 3,3',5,5'-Tetrabromobisphenol A] . Value?
Result: 0.52

Request: Endpoint output: TKcytotoxicity of O=S(=O)(c1ccc(O)cc1)c1ccc(OCc2ccccc2)cc1 [BPS-MPE, 4-[4-(benzyloxy)benzenesulfonyl]phenol] . Value?
Result: 0.45

Request: Endpoint output: TKcytotoxicity of C=CCOc1ccc(S(=O)(=O)c2ccc(O)cc2)cc1 [BPS-MAE, 4-[[4-(Allyloxy)phenyl]sulfonyl]phenol] . Value?
Result: 2.91

Request: Endpoint output: TKcytotoxicity of CC1(C)[C@H](O)C(C)(C)[C@H]1O [t-TMCD] . Value?
Result: 1.74

Request: Endpoint output: TKcytotoxicity of Oc1ccc(C(c2ccc(O)cc2)(C(F)(F)F)C(F)(F)F)cc1 [BPAF] . Value?
Result: 1.14

Request: Endpoint output: TKcytotoxicity of Oc1ccc(Sc2ccc(O)cc2)cc1 [BPT, 4,4'-Thiodiphenol] . Value?
Result: 1.35

Request: Endpoint output: TKcytotoxicity of O=C(OCc1ccccc1)c1ccc(O)cc1 [BzPB, Benzyl 4-hydroxybenzoate] . Value?
Result: 1.10

Request: Endpoint output: TKcytotoxicity of CC(C)(c1ccc(O)c(-c2ccccc2)c1)c1ccc(O)c(-c2ccccc2)c1 [BPPH, 2,2-Bis(2-hydroxy-5-biphenylyl)propane] . Value?
Result: 0.11

Request: Endpoint output: TKcytotoxicity of CC(C)(c1cc(Cl)c(O)c(Cl)c1)c1cc(Cl)c(O)c(Cl)c1 [TCBPA, 2,2',6,6'-Tetrachlorobisphenol A] . Value?
Result: 0.85

Request: Endpoint output: TKcytotoxicity of CC(C)c1cc(C(C)(C)c2ccc(O)c(C(C)C)c2)ccc1O [BPG] . Value?
Result: 0.62

Request: Endpoint output: TKcytotoxicity of Cc1ccc(S(=O)(=O)NC(=O)Nc2cccc(OS(=O)(=O)c3ccc(C)cc3)c2)cc1 [Pergafast] . Value?
Result: 0.45

Request: Endpoint output: TKcytotoxicity of CC(c1ccc(O)cc1)c1ccc(O)cc1 [BPE, 4,4′-Ethylidenbisphenol] . Value?
Result: 0.63

Request: Endpoint output: TKcytotoxicity of Cc1cc(Cc2cc(C)c(O)c(C)c2)cc(C)c1O [TMBPF, Bis(3,5-dimethyl-4-hydroxyphenyl)methane] . Value?
Result: 0.35

----------
# Tested system: Aryl hydrocarbon receptor (Rattus norvegicus)
# Sequence (P41738 10-853): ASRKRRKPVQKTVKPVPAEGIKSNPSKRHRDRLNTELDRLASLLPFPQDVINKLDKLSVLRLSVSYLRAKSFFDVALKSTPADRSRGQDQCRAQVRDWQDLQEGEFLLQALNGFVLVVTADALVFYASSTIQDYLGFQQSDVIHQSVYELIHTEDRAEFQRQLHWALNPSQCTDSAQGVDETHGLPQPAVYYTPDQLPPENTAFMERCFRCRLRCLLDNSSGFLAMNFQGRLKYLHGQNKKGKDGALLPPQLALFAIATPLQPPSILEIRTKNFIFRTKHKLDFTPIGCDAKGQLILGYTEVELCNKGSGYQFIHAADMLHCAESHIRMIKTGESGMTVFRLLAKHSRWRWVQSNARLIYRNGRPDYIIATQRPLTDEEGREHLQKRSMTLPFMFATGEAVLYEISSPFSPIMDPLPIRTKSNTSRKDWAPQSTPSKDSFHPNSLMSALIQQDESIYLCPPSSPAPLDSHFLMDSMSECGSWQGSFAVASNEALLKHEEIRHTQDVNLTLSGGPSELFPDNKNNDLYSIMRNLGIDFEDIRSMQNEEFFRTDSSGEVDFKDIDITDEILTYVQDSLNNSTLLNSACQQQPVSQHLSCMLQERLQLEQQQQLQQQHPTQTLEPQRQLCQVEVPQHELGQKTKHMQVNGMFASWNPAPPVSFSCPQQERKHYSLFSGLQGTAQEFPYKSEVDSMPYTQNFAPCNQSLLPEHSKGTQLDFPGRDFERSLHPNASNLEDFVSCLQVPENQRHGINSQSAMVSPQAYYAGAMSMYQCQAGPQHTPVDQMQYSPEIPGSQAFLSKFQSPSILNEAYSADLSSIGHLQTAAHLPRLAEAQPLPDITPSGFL
# Measurement setup: Bioassay AhR; dosing range all; linear model fit
Attribute measured: EC10, linear

Some compounds with recorded EC10, linear:
>>> reading("CC(C)c1cc(C(C)(C)c2ccc(O)c(C(C)C)c2)ccc1O")
"no effect"
>>> reading("COC(=O)C(c1ccc(O)cc1)c1ccc(O)cc1 [Bz, Methyl bis(4-hydroxyphenyl)acetate]")
"6.20E-05"
>>> reading("C=CCOc1ccc(S(=O)(=O)c2ccc(O)cc2)cc1 [BPS-MAE, 4-[[4-(Allyloxy)phenyl]sulfonyl]phenol]")
"no effect"
>>> reading("Cc1cc(Cc2cc(C)c(O)c(C)c2)cc(C)c1O [TMBPF, Bis(3,5-dimethyl-4-hydroxyphenyl)methane]")
"no effect"

Request: Endpoint output: EC10, linear of Oc1ccc(Sc2ccc(O)cc2)cc1 . Value?
Result: no effect

Request: Endpoint output: EC10, linear of O=C(OCc1ccccc1)c1ccc(O)cc1 [BzPB, Benzyl 4-hydroxybenzoate] . Value?
Result: no effect

Request: Endpoint output: EC10, linear of CC(C)(c1ccc(O)cc1)c1ccc(O)cc1 [BPA, 4,4'-(Propane-2,2-diyl)diphenol, reference compound] . Value?
Result: 2.64E-04
